Test system: Salmonella typhimurium
Assay: Antibacterial activity against Salmonella enterica ATCC 14028 measured after 24 hrs
Assay type: functional, Salmonella enterica subsp. enterica serovar Typhimurium
Conditions: ATCC 14028, 24 h
assayEndpoint: MIC

These solved cases illustrate the format of a correct answer.
>>> endpointresult("CC(C)[C@H](C)[C@@H](O)[C@H](O)[C@@H](C)[C@H]1CC(=O)[C@@H]2[C@@H]3[C@@H](OS(=O)(=O)O)[C@H](O)[C@H]4[C@H](O)[C@@H](O)CC[C@]4(C)[C@H]3CC[C@]12C")
"> 128 µM"
>>> endpointresult("CC(C)[C@@H](CC[C@@H](C)[C@H]1CC(=O)[C@@H]2[C@@H]3[C@@H](O)[C@H](O)[C@H]4C[C@@H](O)CC[C@]4(C)[C@H]3CC[C@]12C)[C@@H](C)O")
"> 128 µM"
>>> endpointresult("CC(C)[C@H](C)[C@@H](O)[C@H](O)[C@@H](C)[C@H]1CC(=O)[C@@H]2[C@@H]3[C@@H](O)[C@H](O)[C@H]4[C@H](O)[C@@H](O)CC[C@]4(C)[C@H]3CC[C@]12C")
"> 128 µM"

CC(C)[C@H](C)[C@@H](O)C[C@@H](C)[C@H]1CC(=O)[C@H]2[C@@H]3[C@@H](O)[C@H](O)[C@H]4[C@H](O)[C@@H](O)CC[C@]4(C)[C@H]3CC[C@]12C has a reported MIC of > 128 µM

CC(C)[C@H](C)[C@@H](O)[C@H](O)[C@@H](C)[C@H]1CC(=O)[C@H]2[C@@H]3[C@@H](O)[C@H](O)[C@H]4[C@H](O)[C@@H](O)CC[C@]4(C)[C@H]3CC[C@]12C has a reported MIC of > 128 µM

CC(C)C[C@H](O)C[C@@H](C)[C@H]1CC(=O)[C@@H]2[C@@H]3[C@@H](O)[C@H](O)[C@H]4[C@H](O)[C@@H](O)CC[C@]4(C)[C@H]3CC[C@]12C has a reported MIC of > 128 µM

CC(C)C[C@@H](O)[C@H](O)[C@@H](C)[C@H]1CC(=O)[C@@H]2[C@@H]3[C@@H](O)[C@H](O)[C@H]4[C@H](O)[C@@H](O)CC[C@]4(C)[C@H]3CC[C@]12C has a reported MIC of > 128 µM

Values were extracted from ChEMBL document CHEMBL4138204.
